Each recorded value in this set is attributed to patent US3956291A.

# System: Staphylococcus aureus
# Method: agar serial dilution test, minimum inhibitory concentration
# Type: cell-based
# Condition set: Staphylococcus aureus, ST AU strain 53-180
Recorded metric: MIC (µg/mL)
One number for each entry, in µg/mL.

Sample answers from the record:
Compound | Tgt | Unit label | Experimental result
CC(=O)OCC1=C(C(=O)O)N2C(=O)[C@@H](NC(=O)CSC(=NC#N)SCc3cccc(Cl)c3)[C@H]2SC1 [Example 16] | Staphylococcus aureus | µg/mL | 3.9
CCOC(=O)CSC(=NC#N)SCC(=O)N[C@@H]1C(=O)N2C(C(=O)O)=C(COC(C)=O)CS[C@H]12 [Example 12] | Staphylococcus aureus | µg/mL | 1.95
COC(=O)CSC(SCC(=O)N[C@@H]1C(=O)N2C(C(=O)O)=C(COC(C)=O)CS[C@H]12)=C(C#N)C(N)=O [Example 3] | Staphylococcus aureus | µg/mL | 1.95
CC(=O)OCC1=C(C(=O)O)N2C(=O)[C@@H](NC(=O)CSC(=NC#N)SCc3ccccc3)[C@H]2SC1 [Example 10] | Staphylococcus aureus | µg/mL | 1.95
CSC(=NC#N)SCC(=O)N[C@@H]1C(=O)N2C(C(=O)O)=C(COC(C)=O)CS[C@H]12 [Example 5] | Staphylococcus aureus | µg/mL | 3.9

Identify measured MIC associated with CC(=O)OCC1=C(C(=O)O)N2C(=O)[C@@H](NC(=O)CSC(=NC#N)SCC#N)[C@H]2SC1 [Example 7]
0.976

---

# System: Staphylococcus aureus
# Method: agar serial dilution test, minimum inhibitory concentration
# Assay type: cell-based
# Condition set: Staphylococcus aureus, ST AU strain CHP
Label condition met when MIC < 8 µg/mL; otherwise condition not met.

Study these solved cases before continuing.
Molecule | Tgt | Class label
CCOC(=O)CSC(SCC(=O)N[C@@H]1C(=O)N2C(C(=O)O)=C(COC(C)=O)CS[C@H]12)=C(C#N)C(N)=O [Example 4] | Staphylococcus aureus | condition met
CCOC(=O)CSC(=NC#N)SCC(=O)N[C@@H]1C(=O)N2C(C(=O)O)=C(COC(C)=O)CS[C@H]12 [Example 12] | Staphylococcus aureus | condition met
CC(=O)OCC1=C(C(=O)O)N2C(=O)[C@@H](NC(=O)CSC(=NC#N)SCC#N)[C@H]2SC1 [Example 7] | Staphylococcus aureus | condition not met
CC(=O)OCC1=C(C(=O)O)N2C(=O)[C@@H](NC(=O)CSC(SCC#N)=C(C#N)c3ccccc3)[C@H]2SC1 [Example 8] | Staphylococcus aureus | condition met

With those in mind, consider the next molecule.
Check if MIC falls below 8 µg/mL for CC(=O)OCC1=C(C(=O)O)N2C(=O)[C@@H](NC(=O)CSC(=NC#N)SCC(=O)O)[C@H]2SC1 [Example 15] .
condition not met

---

What MIC was measured for each of the following?
# Tested on: Staphylococcus aureus
# Method: agar serial dilution test, minimum inhibitory concentration
# Assay type: cell-based
# Condition set: Staphylococcus aureus, ST AU strain 6538P

Compound structure string | MIC
CC(=O)OCC1=C(C(=O)O)N2C(=O)[C@@H](NC(=O)CSC(=NC#N)SCc3cccc(Cl)c3)[C@H]2SC1 | 0.976 µg/mL
CC(=O)OCC1=C(C(=O)O)N2C(=O)[C@@H](NC(=O)CSC(=NC#N)SCC#N)[C@H]2SC1 | 0.488 µg/mL
CC(=O)OCC1=C(C(=O)O)N2C(=O)[C@@H](NC(=O)CSC(SCC#N)=C(C#N)c3ccccc3)[C@H]2SC1 | 0.244 µg/mL

Consider the following items and state reported MIC for each.
1. C#CCSC(=NC#N)SCC(=O)N[C@@H]1C(=O)N2C(C(=O)O)=C(COC(C)=O)CS[C@H]12
2. CC(=O)OCC1=C(C(=O)O)N2C(=O)[C@@H](NC(=O)CSC(=NC#N)SCC(=O)O)[C@H]2SC1
3. CSC(=NC#N)SCC(=O)N[C@@H]1C(=O)N2C(C(=O)O)=C(COC(C)=O)CS[C@H]12
4. CCOC(=O)CSC(SCC(=O)N[C@@H]1C(=O)N2C(C(=O)O)=C(COC(C)=O)CS[C@H]12)=C(C#N)C(N)=O
5. CCOC(=O)CSC(SCC(=O)N[C@@H]1C(=O)N2C(C(=O)O)=C(COC(C)=O)CS[C@H]12)=C(C#N)C#N
6. CC(=O)OCC1=C(C(=O)O)N2C(=O)[C@@H](NC(=O)CSC(=C[N+](=O)[O-])SCC#N)[C@H]2SC1
7. CC(=O)OCC1=C(C(=O)O)N2C(=O)[C@@H](NC(=O)CSC(=NC#N)SCc3ccc(Cl)cc3)[C@H]2SC1
8. CC(=O)OCC1=C(C(=O)O)N2C(=O)[C@@H](NC(=O)CSC(SCC#N)=C(C#N)C#N)[C@H]2SC1

1. 0.488 µg/mL
2. 15.6 µg/mL
3. 1.95 µg/mL
4. 0.488 µg/mL
5. 0.976 µg/mL
6. 0.976 µg/mL
7. 1.95 µg/mL
8. 0.488 µg/mL
